- Tested On: 3',5'-cyclic-AMP phosphodiesterase 4D (Homo sapiens, UniProt Q08499); note: assay procedure not described here
- Sequence (Q08499 whole entry): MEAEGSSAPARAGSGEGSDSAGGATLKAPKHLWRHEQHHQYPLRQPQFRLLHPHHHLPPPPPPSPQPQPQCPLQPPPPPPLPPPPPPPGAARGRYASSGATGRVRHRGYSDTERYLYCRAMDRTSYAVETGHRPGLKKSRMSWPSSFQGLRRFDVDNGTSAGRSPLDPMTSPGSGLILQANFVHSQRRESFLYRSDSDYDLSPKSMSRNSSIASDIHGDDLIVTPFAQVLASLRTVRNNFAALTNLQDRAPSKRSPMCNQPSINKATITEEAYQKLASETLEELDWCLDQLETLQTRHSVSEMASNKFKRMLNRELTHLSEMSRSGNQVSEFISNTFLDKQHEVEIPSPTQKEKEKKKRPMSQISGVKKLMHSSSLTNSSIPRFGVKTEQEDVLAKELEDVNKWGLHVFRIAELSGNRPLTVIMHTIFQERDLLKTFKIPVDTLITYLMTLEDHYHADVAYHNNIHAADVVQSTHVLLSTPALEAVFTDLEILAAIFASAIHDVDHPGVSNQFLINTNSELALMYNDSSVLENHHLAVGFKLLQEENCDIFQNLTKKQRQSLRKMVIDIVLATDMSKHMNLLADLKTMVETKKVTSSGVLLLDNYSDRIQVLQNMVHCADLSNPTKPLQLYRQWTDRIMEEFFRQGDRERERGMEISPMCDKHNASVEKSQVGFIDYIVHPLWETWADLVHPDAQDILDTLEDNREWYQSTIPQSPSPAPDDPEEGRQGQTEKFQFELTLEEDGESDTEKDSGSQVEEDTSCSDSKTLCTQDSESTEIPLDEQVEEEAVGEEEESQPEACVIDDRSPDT
- Format: functional
Listed compounds paired with reported AC50

AC50 measured on "CC[C@H]1OC(=O)[C@H](C)[C@@H](O[C@H]2C[C@@](C)(OC)[C@@H](O)[C@H](C)O2)[C@H](C)[C@@H](O[C@@H]2O[C@H](C)C[C@H](N(C)C)[C@H]2O)[C@](C)(O)C[C@@H](C)CN(C)[C@H](C)[C@@H](O)[C@]1(C)O" = > 30 µM

AC50 measured on "CN1CCN(C2=Nc3ccccc3Sc3ccc(Cl)cc32)CC1" = > 30 µM

AC50 measured on CC(Oc1c(Cl)cccc1Cl)C1=NCCN1 (configuration not stated) = > 30 µM

AC50 measured on CC1(C)NC(=O)N(c2ccc([N+](=O)[O-])c(C(F)(F)F)c2)C1=O [NILUTAMIDE] = 28 µM

* * *

Please consider the recorded AC50 for Beta-3 adrenergic receptor (Homo sapiens) in what follows.

Examples from the recorded data:
Compound	Tested On	Endpoint Result
CN1CCN(CC/C=C2/c3ccccc3Sc3ccc(S(=O)(=O)N(C)C)cc32)CC1	Beta-3 adrenergic receptor (Homo sapiens)	> 30 µM
CN1C(=O)C(O)N=C(c2ccccc2)c2cc(Cl)ccc21 (stereo not given)	Beta-3 adrenergic receptor (Homo sapiens)	> 30 µM
COc1ccc2c3c1O[C@H]1[C@@H](O)C=C[C@H]4[C@@H](C2)N(C)CC[C@@]341	Beta-3 adrenergic receptor (Homo sapiens)	> 30 µM
Cn1nnc2c(C(N)=O)ncn2c1=O [TEMOZOLOMIDE]	Beta-3 adrenergic receptor (Homo sapiens)	> 30 µM
CCOc1ccccc1OCC1CNCCO1 (stereo not given)	Beta-3 adrenergic receptor (Homo sapiens)	> 30 µM
CC1=C(C(=O)O)N2C(=O)[C@@H](NC(=O)[C@H](N)c3ccccc3)[C@H]2SC1 [CEPHALEXIN ANHYDROUS]	Beta-3 adrenergic receptor (Homo sapiens)	> 30 µM
COc1ccc(C(=O)Nc2ccccc2CCC2CCCCN2C)cc1 (stereo not given) [ENCAINIDE]	Beta-3 adrenergic receptor (Homo sapiens)	> 30 µM
CN(C)CCC=C1c2ccccc2C=Cc2ccccc21	Beta-3 adrenergic receptor (Homo sapiens)	> 30 µM
O=[N+]([O-])c1cn2c(n1)OC[C@@H](OCc1ccc(OC(F)(F)F)cc1)C2	Beta-3 adrenergic receptor (Homo sapiens)	> 30 µM
COc1cccc(C2(O)CCCCC2CN(C)C)c1 (stereo not given)	Beta-3 adrenergic receptor (Homo sapiens)	> 30 µM

Given the compound CN(C)CCC(c1ccc(Cl)cc1)c1ccccn1 (stereo not given) and test system Beta-3 adrenergic receptor (Homo sapiens), the measured AC50 is > 30 µM

Given the compound "Cc1cn([C@H]2C=C[C@@H](CO)O2)c(=O)[nH]c1=O" and test system Beta-3 adrenergic receptor (Homo sapiens), the measured AC50 is > 30 µM

Given the compound "CCCCCNC(=N)N/N=C/c1c[nH]c2ccc(OC)cc12" and test system Beta-3 adrenergic receptor (Homo sapiens), the measured AC50 is 6.08 µM

Given the compound CCC(C)n1ncn(-c2ccc(N3CCN(c4ccc(OCC5COC(Cn6cncn6)(c6ccc(Cl)cc6Cl)O5)cc4)CC3)cc2)c1=O (stereo not given) and test system Beta-3 adrenergic receptor (Homo sapiens), the measured AC50 is > 30 µM

Given the compound "CCCc1nc(C(C)(C)O)c(C(=O)OCc2oc(=O)oc2C)n1Cc1ccc(-c2ccccc2-c2nnn[nH]2)cc1" and test system Beta-3 adrenergic receptor (Homo sapiens), the measured AC50 is > 30 µM

Given the compound "CC(C)(C)c1cc(C(C)(C)C)c(NC(=O)c2c[nH]c3ccccc3c2=O)cc1O" and test system Beta-3 adrenergic receptor (Homo sapiens), the measured AC50 is 4.4 µM

Given the compound "CCc1c(Cl)c(O)c(Cl)c(O)c1C(=O)O[C@H]1[C@H](O)[C@H](OC)[C@H](OC/C2=C\C=C\C[C@H](O)/C(C)=C/[C@H](CC)[C@@H](O[C@@H]3OC(C)(C)[C@@H](OC(=O)C(C)C)[C@H](O)[C@@H]3O)/C(C)=C/C(C)=C/C[C@@H]([C@@H](C)O)OC2=O)O[C@@H]1C" and test system Beta-3 adrenergic receptor (Homo sapiens), the measured AC50 is > 30 µM

Given the compound "Cc1c(C(=O)NN2CCCCC2)nn(-c2ccc(Cl)cc2Cl)c1-c1ccc(Cl)cc1" and test system Beta-3 adrenergic receptor (Homo sapiens), the measured AC50 is > 30 µM

Given the compound "CCOC(=O)[C@H](CCc1ccccc1)N[C@@H](C)C(=O)N1[C@H](C(=O)O)C[C@@H]2CCC[C@@H]21" and test system Beta-3 adrenergic receptor (Homo sapiens), the measured AC50 is > 30 µM

Given the compound O=[N+]([O-])O[C@@H]1CO[C@H]2[C@@H]1OC[C@@H]2O [ISOSORBIDE MONONITRATE] and test system Beta-3 adrenergic receptor (Homo sapiens), the measured AC50 is > 30 µM

Given the compound CCCN1C[C@H](CSC)C[C@@H]2c3cccc4[nH]cc(c34)C[C@H]21 [PERGOLIDE] and test system Beta-3 adrenergic receptor (Homo sapiens), the measured AC50 is 20.8 µM

Given the compound "CC(C)C[C@H]1C(=O)N2CCC[C@H]2[C@]2(O)O[C@](NC(=O)[C@@H]3C=C4c5cccc6[nH]c(Br)c(c56)C[C@H]4N(C)C3)(C(C)C)C(=O)N12" and test system Beta-3 adrenergic receptor (Homo sapiens), the measured AC50 is 18.9 µM

Given the compound "CO[C@H]1C[C@@H]2CC[C@@H](C)[C@@](O)(O2)C(=O)C(=O)N2CCCC[C@H]2C(=O)O[C@H]([C@H](C)C[C@@H]2CC[C@@H](O)[C@H](OC)C2)CC(=O)[C@H](C)/C=C(\C)[C@@H](O)[C@@H](OC)C(=O)[C@H](C)C[C@H](C)/C=C/C=C/C=C/1C" and test system Beta-3 adrenergic receptor (Homo sapiens), the measured AC50 is 23.8 µM

* * *

Listed compounds paired with reported AC50
- Tested On: UniProt P06401
- Sequence (P06401 whole entry): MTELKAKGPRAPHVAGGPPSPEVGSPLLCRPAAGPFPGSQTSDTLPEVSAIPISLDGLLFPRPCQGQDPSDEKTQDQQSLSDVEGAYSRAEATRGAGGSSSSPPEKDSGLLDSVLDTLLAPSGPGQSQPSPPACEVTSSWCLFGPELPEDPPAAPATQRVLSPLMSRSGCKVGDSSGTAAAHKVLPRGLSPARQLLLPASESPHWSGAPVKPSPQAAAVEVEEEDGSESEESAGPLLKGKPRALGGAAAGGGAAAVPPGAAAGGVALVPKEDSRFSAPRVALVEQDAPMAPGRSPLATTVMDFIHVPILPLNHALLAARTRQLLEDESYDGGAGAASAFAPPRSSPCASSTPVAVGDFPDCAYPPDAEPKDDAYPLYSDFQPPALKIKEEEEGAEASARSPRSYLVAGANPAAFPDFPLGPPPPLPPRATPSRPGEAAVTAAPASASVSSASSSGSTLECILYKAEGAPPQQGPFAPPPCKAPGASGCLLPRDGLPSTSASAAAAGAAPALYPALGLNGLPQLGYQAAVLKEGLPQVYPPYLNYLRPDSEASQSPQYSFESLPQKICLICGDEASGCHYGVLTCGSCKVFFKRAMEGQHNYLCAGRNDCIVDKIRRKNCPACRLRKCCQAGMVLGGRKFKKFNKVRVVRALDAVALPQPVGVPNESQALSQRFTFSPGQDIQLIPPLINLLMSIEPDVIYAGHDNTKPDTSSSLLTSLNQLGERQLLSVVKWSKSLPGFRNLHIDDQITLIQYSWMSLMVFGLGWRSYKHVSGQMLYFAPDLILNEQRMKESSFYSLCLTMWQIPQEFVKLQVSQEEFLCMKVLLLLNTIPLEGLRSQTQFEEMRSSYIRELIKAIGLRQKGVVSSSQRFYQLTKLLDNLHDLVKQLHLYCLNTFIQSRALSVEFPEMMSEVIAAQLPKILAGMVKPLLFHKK
- Format: functional

Examples from the recorded data:
Compound	Tested On	Measure	Endpoint Result
C=CCN1CCCC1CNC(=O)c1cc(S(N)(=O)=O)cc(OC)c1OC (stereo not given) [VERALIPRIDE]	UniProt P06401	AC50	> 30 µM
C[C@H](N)[C@H](O)c1cccc(O)c1 [METARAMINOL]	UniProt P06401	AC50	> 10 µM
CC(CC(c1ccccc1)c1ccccc1)NC(C)(C)C (stereo not given) [TERODILINE]	UniProt P06401	AC50	> 30 µM
CC(C)C(=O)c1c(C(C)C)nn2ccccc12 [IBUDILAST]	UniProt P06401	AC50	> 30 µM

AC50 measured on C#C[C@]1(O)CC[C@H]2[C@@H]3CCC4=Cc5oncc5C[C@]4(C)[C@H]3CC[C@@]21C [DANAZOL] = 0.019 µM

* * *

- Tested On: 5-hydroxytryptamine receptor 2B (Homo sapiens, UniProt P41595); note: assay procedure not described here
- Sequence (P41595 whole entry): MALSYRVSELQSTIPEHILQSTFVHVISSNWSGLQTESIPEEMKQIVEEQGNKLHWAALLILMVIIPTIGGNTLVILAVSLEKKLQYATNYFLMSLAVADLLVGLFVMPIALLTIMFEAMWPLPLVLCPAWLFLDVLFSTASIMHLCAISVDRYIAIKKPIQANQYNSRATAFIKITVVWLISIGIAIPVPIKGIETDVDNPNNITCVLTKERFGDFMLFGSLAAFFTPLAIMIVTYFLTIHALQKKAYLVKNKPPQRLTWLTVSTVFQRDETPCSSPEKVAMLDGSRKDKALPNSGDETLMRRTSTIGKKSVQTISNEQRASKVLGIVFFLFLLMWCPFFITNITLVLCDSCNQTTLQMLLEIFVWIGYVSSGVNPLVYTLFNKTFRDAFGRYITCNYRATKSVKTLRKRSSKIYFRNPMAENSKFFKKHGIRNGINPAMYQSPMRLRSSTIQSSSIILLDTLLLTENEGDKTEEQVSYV
Listed compounds paired with reported AC50

Compound	AC50
CC/C(=C(\c1ccccc1)c1ccc(OCCN(C)C)cc1)c1ccccc1 [TAMOXIFEN]	896 nM
COc1ccc2c3c1O[C@H]1[C@@H](O)C=C[C@H]4[C@@H](C2)N(C)CC[C@@]341 [CODEINE]	> 10000 nM
CCCN(CCC)C(=O)C(CCC(=O)O)NC(=O)c1ccccc1 (stereo not drawn) [PROGLUMIDE]	> 10000 nM
O=[N+]([O-])O[C@@H]1CO[C@H]2[C@@H]1OC[C@@H]2O [ISOSORBIDE MONONITRATE]	> 10000 nM
CCCc1nc(C(C)(C)O)c(C(=O)OCc2oc(=O)oc2C)n1Cc1ccc(-c2ccccc2-c2nnn[nH]2)cc1 [OLMESARTAN MEDOXOMIL]	> 10000 nM

AC50 measured on COc1ccccc1N1CCN(CC(O)COc2cccc3ccccc23)CC1 (stereo not drawn) [NAFTOPIDIL] = 47 nM

AC50 measured on CN1CCN(CC/C=C2/c3ccccc3Sc3ccc(S(=O)(=O)N(C)C)cc32)CC1 [THIOTHIXENE] = 857 nM

AC50 measured on CC(C)(C)c1cc(C(C)(C)C)c(NC(=O)c2c[nH]c3ccccc3c2=O)cc1O [IVACAFTOR] = > 10000 nM
